B1: NEK8 (parent)
chain: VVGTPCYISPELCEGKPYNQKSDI

variants of: B1; test: protein stability index of a GFP-peptide fusion (GPS, HEK-293T) (PSI 1-6); higher = more stable; conditions: c terminus: a fixed tail appended;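 note: lentivirally expressed fusions sorted by FACS into six bins by GFP to DsRed ratio, PSI derived from sequencing read proportions per bin multiplied by bin number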
measure: protein stability index
Please reply with the number alone, leaving off any unit.

*Q* Dear colleague, I am looking for the recorded protein stability index of the following variant: I8E
*A* 4.5

*Q* Dear colleague, I am looking for the recorded protein stability index of the following variant: Y7W
*A* 2.82

*Q* Dear colleague, I am looking for the recorded protein stability index of the following variant: G15W
*A* 1.64
